B1: ZNF8 (parent)
chain: SLGRHKRTHTGEKPYTCSVCGKSF

Variants of: B1
method notes: protein stability index of a GFP-peptide fusion (GPS, HEK-293T) (PSI 1-6); higher = more stable;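 further: lentivirally expressed fusions sorted by FACS into six bins by GFP to DsRed ratio, PSI derived from sequencing read proportions per bin multiplied by bin number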
measurement conditions: c terminus: a fixed tail appended
# if value of protein stability index reaches 3, tag Yes; if it stays below, tag No

# var, cat
rows = [
    ("E12Y", "Yes"),
    ("P14I", "Yes"),
    ("T10C", "No"),
    ("H9G", "No"),
    ("C20K", "Yes"),
    ("S18T", "No"),
    ("G11K", "No"),
    ("V19T", "No"),
    ("T10L", "No"),
    ("S23R", "Yes"),
    ("F24D", "Yes"),
    ("K6N", "No"),
    ("K6P", "No"),
    ("P14F", "Yes"),
    ("G21I", "No"),
    ("R4H", "No"),
    ("H9D", "No"),
    ("C20W", "No"),
    ("T16C", "No"),
    ("G11Q", "No"),
    ("S1Q", "Yes"),
    ("K6C", "Yes"),
    ("T10P", "No"),
    ("Y15R", "No"),
    ("T8K", "Yes"),
    ("T8I", "No"),
    ("V19F", "No"),
    ("K13C", "No"),
    ("G11P", "No"),
    ("Y15F", "No"),
    ("P14G", "No"),
    ("R4P", "No"),
    ("L2N", "Yes"),
    ("E12K", "No"),
    ("G3S", "No"),
    ("V19R", "Yes"),
    ("T16P", "No"),
    ("H5L", "No"),
    ("C17Y", "No"),
    ("K13Q", "No"),
    ("V19Q", "Yes"),
    ("T10F", "No"),
    ("T10V", "No"),
    ("G21W", "No"),
    ("F24K", "Yes"),
    ("E12M", "No"),
    ("H5S", "No"),
    ("G21F", "No"),
    ("P14A", "No"),
    ("P14M", "No"),
    ("C20F", "No"),
    ("C17D", "Yes"),
    ("C17G", "Yes"),
    ("L2Y", "Yes"),
    ("L2D", "Yes"),
    ("G3M", "No"),
    ("T16D", "No"),
    ("K13Y", "No"),
    ("S23L", "No"),
    ("K22P", "Yes"),
    ("R4S", "Yes"),
    ("T10A", "No"),
    ("S18H", "No"),
    ("S1M", "No"),
    ("G3A", "No"),
    ("K6I", "No"),
    ("E12V", "No"),
    ("S23A", "No"),
    ("E12I", "No"),
    ("S1A", "No"),
    ("H9W", "No"),
    ("C20Q", "Yes"),
    ("K22Y", "Yes"),
    ("T16I", "No"),
    ("R4T", "Yes"),
    ("F24P", "Yes"),
    ("K22N", "No"),
]
